test system: MOLT-4 leukemia; test: NCI tumour cell line growth inhibition, 48 h
measure: TGI

Worked examples follow.
CN(C)c1ccc(N=C2N=C(Nc3ccccc3)C(=Nc3ccccc3)S2)cc1 | > 100 µM
COC(=O)C(Cc1nc2ccc(Cl)cc2[nH]c1=O)C(=O)C(=O)Nc1cc(C)ccc1C (stereo not drawn) | > 100 µM

Can you share its TGI? I mean this compound: COc1ccc(OC2(c3cc(OC)ccc3OC)OC(=O)c3ccccc32)cc1 (stereo not drawn)
> 100 µM

====

test system: LOX IMVI melanoma; assay: NCI tumour cell line growth inhibition, 48 h
measure: TGI

Worked examples follow.
Nc1nc(-c2cccnc2)cc(-c2cc(-c3cccnc3)nc(N)n2)n1 | > 100 µM
COc1cc(/C=N/NC(=O)c2c(Cl)c(Cl)c(Cl)c(Cl)c2-c2nc3ccc(C(=O)c4ccccc4)cc3[nH]2)ccc1O | > 100 µM
Fc1cc2nc3n(c2cc1F)C(c1c(F)cccc1F)SC3 (centres undefined) | > 100 µM

Moving on to the next compound.
Can you share its TGI? I mean this compound: N#Cc1ccc(C2ON=C(c3ccccc3)N2C23CC4CC(CC(C4)C2)C3)cc1 (centres undefined)
> 10 µM

====

test system: SR leukemia; assay: NCI tumour cell line growth inhibition, 48 h
Consider the following compounds; for each one, report its TGI.

Worked examples follow.
CC(=O)OC(C(=O)O)C(OC(C)=O)C(OC(C)=O)C(OC(C)=O)C(=O)O (stereo not given) | > 100 µM
C/C(=N\O)c1ccc(OCc2cc(C(F)(F)F)cc(C(F)(F)F)c2)cc1 | > 100 µM
S=C(NCCc1ccccn1)N/N=C(\c1ccccc1)c1ccccn1 | > 57.7 µM
O=C(O)CCC(NC(=O)c1ccc(Oc2nc3ccccc3nc2C(=O)O)cc1)C(=O)O (stereo not given) | > 100 µM
OCC1OC(N2C=C(c3nc4ccccc4s3)C3C=CC=CC32)C(O)C(O)C1O (stereo not given) | > 50 µM

Return reported TGI values for all items listed beneath this line.
1. Cn1c(-c2ccccc2)cc(-c2ccc3c(c2)OCO3)c1-c1ccsc1
2. C=CC12CCCCC1CC(C(=O)OC)=C(O)C2 (stereo not given)
3. Cc1ncc(C(=O)Nc2ccc(CN3CCN(C)CC3)c(C(F)(F)F)c2)cc1C#Cc1cnc(N)c2ccc(C#N)cc12
4. Cc1cc(-c2nc3sc(C)cn3c2/C=N/N=C(N)N)c(C)s1
5. CCS1=C2C(=O)CC(C)(C)CC2=Nc2ccccc21 (stereo not given)

["> 100 µM", "> 100 µM", "> 100 µM", "> 100 µM", "> 100 µM"]

====

system: HS 578T breast; assay: NCI tumour cell line growth inhibition, 48 h
measure: TGI

Worked examples follow.
CCC1C(NC(=O)OC)C(=O)N1[C@@H](C)c1ccccc1 (some centres not stated) | > 100 µM
Cc1nnn(C)c1-c1cnc2c3ccc(C(C)(C)O)cc3n([C@H](c3ccccc3)C3CCOCC3)c2c1 | > 100 µM
Nc1nc(-c2cccnc2)cc(-c2cc(-c3cccnc3)nc(N)n2)n1 | > 100 µM
OCc1ccc(-c2nc(-c3ccc4c(c3)OCO4)c(-c3ccccn3)[nH]2)cc1 | > 25 µM

Return reported TGI values for all items listed beneath this line.
1. CCCCCCCCCCC/C=C(/C(=O)CCCO[Si](C)(C)C(C)(C)C)C(=O)OC
2. C/C(=N\O)c1ccc(OCc2cc(C(F)(F)F)cc(C(F)(F)F)c2)cc1
3. Nc1nc(Cl)c(N)c(NCC2(CO)CCC(OCc3ccccc3)C2)n1 (configuration not stated)

["> 100 µM", "> 100 µM", "> 100 µM"]
